tested on: HS 578T breast; assay: NCI-60 one-dose screen, 48 h (100 = growth as untreated, 0 = no growth, -100 = all killed); conditions: 10 µM unless noted
The panel holds about 83,000 compounds, 20% with a hit somewhere; the sample as a whole holds those more often.
Known growth of a selection of molecules
Reply numerically in %, unit not repeated.

N#Cc1c2c(c(N)[nH]c1=O)C(=O)NC2(O)c1ccccc1 (stereo not given) :: 111
CN1CCN(Cn2nc(-c3cc(Cl)cc(Cl)c3Cl)n(/N=C/c3ccc(Cl)cc3)c2=S)CC1 :: 112
CS(=O)(=O)OCC(COS(C)(=O)=O)C(c1ccccc1)c1ccccc1 :: 104
O=C1CN(CCN2CC(=O)NC(=O)C2)CC(=O)N1 :: 102

# evaluate next
Q: Consider the molecule shown here: Cc1cc(SCc2ccc(Cl)cc2Cl)nc(SCc2ccc(Cl)cc2Cl)n1 What is its recorded growth?
Result: 102

----------
system: SK-MEL-2 melanoma; assay: NCI-60 one-dose screen, 48 h (100 = growth as untreated, 0 = no growth, -100 = all killed); settings: 10 µM unless noted
Compounds without any hit were thinned out: in the full panel of roughly 83,000, 20% have a hit.
Known growth of a selection of molecules
Reply numerically in %, unit not repeated.

Worked cases, answers included:
COc1ccc2c(c1)OC(N)=C(C#N)C2c1ccc(F)cc1 (stereo unspecified) :: 18.5
O=C(CNc1cccnc1)Nc1ccc(C(=O)/C=C/c2ccc(Cl)cc2)cc1 :: 84.4
NC(=NCCCOc1ccc(F)cc1)Nc1ccc(Cl)c(Cl)c1 :: 95.9
COc1cc(C(=O)NNC(=O)c2ccccc2O)cc(OC)c1OC :: 80.2
FC(F)(F)c1cccc([Si](F)(c2cccc(C(F)(F)F)c2)c2cccc(C(F)(F)F)c2)c1 :: 87.6

# evaluate next
Q: Consider the molecule shown here: Nn1c(SCC(=O)Nc2cc(Cl)c(Cl)cc2Cl)nnc1-c1cc(F)c(Cl)cc1Cl What is its recorded growth?
Result: 87.3

----------
test system: CCRF-CEM leukemia; assay: NCI-60 one-dose screen, 48 h (100 = growth as untreated, 0 = no growth, -100 = all killed); conditions: 10 µM unless noted
Compounds without any hit were thinned out: in the full panel of roughly 83,000, 20% have a hit. The source made the active and inactive calls. Rule for the calls: active = growth percent below 10; inactive = the rest.
Known growth of a selection of compounds

Worked cases, answers included:
O=C(c1cc(-c2ccc(Cl)cc2)nc2ccccc12)N1N=C(c2ccccc2)CC1c1cc(-c2ccccc2)nn1-c1ccccc1 (centres undefined) :: 65.1% (inactive)
Cc1cn(-c2nc3c(c(NCc4ccccc4)n2)COCC3)c2cccc(C(N)=O)c12 :: 49.1% [0.5 µM] (inactive)
O=C(O)c1ccc(-n2cc(/C=N/Nc3ccccc3F)c(-c3ccc(O)cc3)n2)cc1 :: 41.5% (inactive)
COc1cc(NC(C)CCCN2C(=O)c3ccccc3C2=O)c2ncccc2c1OC (centres undefined) :: -26.9% (active)
CC(C)(C)C(=O)Nc1nc2c(s1)CCc1ccn(S(=O)(=O)c3ccccc3)c1-2 :: 92.9% (inactive)
COc1cccc(/C=N/C(=S)NC2(C)C3CCC(C3)C2(C)C)c1O (centres undefined) :: 57.3% (inactive)

Q: Consider the compound shown here: COc1ccc2c(c1)OC(N(C(C)=O)C(C)=O)=C(C#N)C2c1ccc(F)cc1 (centres undefined) What is its recorded growth?
Result: 10.9% (inactive)

Q: Also CC(C)(C)OC(=O)N1CC(Cn2cc(C(F)(F)F)c3c(Cl)ncnc32)C1 , if possible.
Result: -26.6% (active)

Q: Also Nc1nc(-c2cc3c(cc2Cl)NC(=O)/C3=C/c2ccc(Cl)cc2)cs1 , if possible.
Result: 19% (inactive)

----------
system: NCI-H322M lung; test: NCI-60 one-dose screen, 48 h (100 = growth as untreated, 0 = no growth, -100 = all killed); conditions: 10 µM unless noted
Compounds without any hit were thinned out: in the full panel of roughly 83,000, 20% have a hit. The source made the active and inactive calls. Rule for the calls: active = growth percent below 10; inactive = the rest.
Known growth of a selection of compounds

Nc1nc(Cl)c2c(C(F)(F)F)cn(CC3CCNCC3)c2n1 :: 100% (inactive)
Nc1ncc(-c2ccc3ncnc(Nc4cncc(Cl)c4)c3c2)cn1 :: 29.8% (inactive)
O=C(Nc1ccc(-n2cc(-c3ccncc3)c(-c3ccc(O)c(Cl)c3)n2)cc1)c1ccc(Cl)c(C(F)(F)F)c1 :: 54.6% (inactive)
Cc1ccc2[nH]c3nc4cccnc4c(C)c3c2c1 :: 44.4% (inactive)

Q: Consider the compound shown here: Nc1ncc(-c2ccc3ncnc(Nc4ccc(F)c(Cl)c4)c3c2)cn1 What is its recorded growth?
Result: 33% (inactive)

Q: Also CC(CN(C)C)CN1c2ccccc2CCc2ccccc21 (stereo unspecified) , if possible.
Result: 77.1% (inactive)

Q: Also O=C(NC(=S)Nc1ccc(Cl)cc1)c1ccccc1 , if possible.
Result: 107% (inactive)

----------
tested on: SK-MEL-5 melanoma; test: NCI-60 one-dose screen, 48 h; conditions: 10 µM unless noted
This is part of a sample that, as a whole, favours compounds with a hit. Of some 83,000 tested, about 20% had one in any assay. Active and inactive are the calls of the source. How the source made its calls: active means growth percent below 10; inactive means the rest.
Hi! Could you answer with just one of these? active, inactive

Consider the following illustrative entries.
CN(C)c1ccc(/C=N/n2c(-c3cc(F)c(Cl)cc3Cl)nn(CN3CCOCC3)c2=S)cc1 :: inactive
CCC1CN2C(=N1)c1ccccc1-c1cc(Cl)ccc12 (stereo not given) :: active
O=S(c1ccccc1)c1ccc2nnnn2n1 (stereo not given) :: inactive
COc1cc2c(/C=C3/C(=O)Nc4ccc(O)cc43)c(Cl)n(Cc3cc(OC)c(OC)c(OC)c3)c2cc1C :: active
CCC1S/C(=N\N=C(/C)c2cccs2)N(c2ccccc2)C1=O (stereo not given) :: inactive

Q: Entry O=[N+]([O-])c1cccc2cc(S(=O)(=O)O)ccc12 : call = ?
Result: inactive

Q: Also C=C1C(=O)O[C@H]2[C@H]1CC/C(C(=O)Nc1ccc(OC)c(C(N)=O)c1O)=C\CC[C@@]1(C)O[C@@H]21 , if possible.
Result: inactive

Q: Also CCOC(=O)CSc1nnc(-c2cc3c([nH]c4ccccc43)c(-c3cccc(O)c3)n2)n1-c1ccc(C)cc1 , if possible.
Result: inactive

Q: Also COc1cc(/C=C/C(=O)c2ccc(Oc3ncnc4ccccc34)cc2)cc(OC)c1OC , if possible.
Result: inactive

Q: Also c1ccc2c(c1)Oc1cccnc1-n1nccc1-2 , if possible.
Result: inactive

----------
Known growth of a selection of compounds
tested on: EKVX NSCLC; test: NCI-60 one-dose screen, 48 h (100 = growth as untreated, 0 = no growth, -100 = all killed); conditions: 10 µM unless noted
Compounds without any hit were thinned out: in the full panel of roughly 83,000, 20% have a hit. Activity calls are given as the source filed them. The calls were made as follows: active = growth percent below 10; inactive = the rest.

Worked cases, answers included:
OCc1cn(-c2ccc(Cl)cc2)nc1-c1ccc(O)cc1 :: 89.7% (inactive)
Cn1c(I)c(C#C[Si](C)(C)C)c(=O)[nH]c1=O :: 86.5% (inactive)

Q: Consider the compound shown here: COc1ccc(-c2cc(-c3nnc(SC/C(=N\O)c4ccccc4)n3-c3ccccc3)c3ccccc3n2)cc1 What is its recorded growth?
Result: 103% (inactive)

Q: Also CCC1CN2C(=N1)c1ccccc1-c1cc(Cl)ccc12 (stereo not given) , if possible.
Result: 22.9% (inactive)

Q: Also COc1ccc(C[C@H](N)C(=O)N[C@@H]2[C@@H](CO)OC(n3cnc4c(N(C)C)ncnc43)[C@@H]2O)cc1 (stereo not given in full) , if possible.
Result: -47.2% (active)

----------
system: HCT-15 colon; assay: NCI-60 one-dose screen, 48 h (100 = growth as untreated, 0 = no growth, -100 = all killed); conditions: 10 µM unless noted
This is part of a sample that, as a whole, favours compounds with a hit. Of some 83,000 tested, about 20% had one in any assay.
Entry flag: fulfilled if growth reaches 80%; not fulfilled if it does not.

CC(CN(C)C)CN1c2ccccc2CCc2ccccc21 (stereo unspecified) :: fulfilled
NC(=NCCCOc1ccc(F)cc1)Nc1ccc(Cl)c(Cl)c1 :: not fulfilled
COc1ccccc1S(=O)(=O)Nc1ccc2c3c(cc(-c4cnn(C5CC5)c4)nc13)C(=O)N2C :: not fulfilled
CC(Cl)(CCl)CS(=O)(=O)c1ccc(Cl)cc1 (stereo unspecified) :: fulfilled

Q: Answer whether growth of S=C=NP1(N=C=S)=NP(N=C=S)(N=C=S)=NP(N=C=S)(N=C=S)=NP(N=C=S)(N=C=S)=N1 (stereo unspecified) is greater than or equal to 80%.
Result: fulfilled

Q: Also O=C(/C=C/c1ccccc1)Oc1ccc(/C=C/c2cc(OC(=O)/C=C/c3ccccc3)cc(OC(=O)/C=C/c3ccccc3)c2)cc1 , if possible.
Result: fulfilled

Q: Also CC(Cc1cccc(C(F)(F)F)c1)NCCOC(=O)c1ccccc1 (stereo unspecified) , if possible.
Result: fulfilled

Q: Also COc1ccc(-c2nn(-c3ccc(NC(=O)c4cc(Cl)cc(Cl)c4)cc3)cc2-c2ccncc2)cc1Cl , if possible.
Result: not fulfilled

Q: Also c1coc(CSc2ncnc3nc[nH]c23)c1 , if possible.
Result: fulfilled

Cited source: PubChem BioAssay (NCI)
